I'd appreciate it if you could supply GI50 values for the items below.
- System: OVCAR-4
- ASSAY_DETAILS: NCI tumour cell line growth inhibition, 48 h
Active and inactive are the calls of the source. Rule as the data show it: active = GI50 up to about 1.1 µM and inactive = higher.

Given CCOC(=O)C1C(c2ccc3c(c2)OCO3)c2c(n[nH]c2O)CC1(C)O (stereo unspecified) , state its recorded GI50.
> 100 µM (inactive)

Given CC1=CC(=O)CC(C)(C)C1/C=C/C(C)=C/C=C/C(C)=C/C=C/C=C(C)/C=C/C=C(C)/C=C/C1C(C)=CC(=O)CC1(C)C (stereo unspecified) , state its recorded GI50.
41.1 µM (inactive)

Given CCOCc1cc(=O)c2cc3c(cc2o1)OC(C)(C)CC3 , state its recorded GI50.
> 100 µM (inactive)

Given Cc1c(N)nc([C@H](CC(N)=O)NC[C@H](N)C(N)=O)nc1C(=O)N[C@H](C(=O)N[C@H](C)[C@@H](O)CC(=O)N[C@H](C(=O)NC(O[C@@H]1O[C@@H](C)[C@@H](N)[C@@H](O)[C@H]1O)C(O)c1nc(-c2nc(C(=O)NCCCCN)cs2)cs1)[C@@H](C)O)[C@@H](O[C@@H]1O[C@@H](CO)[C@@H](O)[C@H](O)[C@@H]1O[C@H]1O[C@H](CO)[C@@H](O)[C@H](OC(N)=O)[C@@H]1O)c1c[nH]cn1 (stereo partly specified) , state its recorded GI50.
> 50 µM (inactive)

Given O=C1C(O)=C(Cl)C(=O)c2c(O)ccc(O)c21 , state its recorded GI50.
> 100 µM (inactive)

Given Cc1cccc(C)c1N1C(=O)C(=O)C(c2nc3ccccc3s2)/C(=N/c2cccc3c(=O)[nH][nH]c(=O)c23)C1=O (stereo unspecified) , state its recorded GI50.
79.3 µM (inactive)

* * *

- Tested on: SNB-78
- ASSAY_DETAILS: NCI tumour cell line growth inhibition, 48 h
The source made the active and inactive calls. Rule as the data show it: active = GI50 up to about 1.1 µM and inactive = higher.
QUANTITY_KIND: GI50

Given O=C1C2C3C=CC(C2C(=O)N1CN1CCOCC1)C1C2C(=O)N(CN4CCOCC4)C(=O)C2C31 (stereo not drawn) , state its recorded GI50.
32.9 µM (inactive)

Given Cc1cccc(C)c1N1C(=O)C(=O)C(c2nc3ccccc3s2)/C(=N/c2cccc3c(=O)[nH][nH]c(=O)c23)C1=O (stereo not drawn) , state its recorded GI50.
> 100 µM (inactive)

Given Cc1ccc(Nc2nc(C)c(C(/C=C/c3ccc(/C=C/C(=N/NC(=O)C[n+]4ccccc4)c4sc(Nc5ccc(C)cc5[N+](=O)[O-])nc4C)cc3)=N\NC(=O)C[n+]3ccccc3)s2)c([N+](=O)[O-])c1 , state its recorded GI50.
91.2 µM (inactive)

* * *

- Test system: SK-OV-3
- ASSAY_DETAILS: NCI tumour cell line growth inhibition, 48 h
Active and inactive are the calls of the source. Rule as the data show it: active = GI50 up to about 1.1 µM and inactive = higher.
QUANTITY_KIND: GI50

Given O=C(Nc1ccccc1-c1nn(CO)c(=S)n(CO)c1=O)C(F)(F)F , state its recorded GI50.
> 100 µM (inactive)

Given O=S1(=O)c2ccccc2NC(=S)CC1c1ccccc1 (stereo not given) , state its recorded GI50.
> 100 µM (inactive)

Given COc1ccc(-c2cc(-c3ccc(Nc4ccnc5cc(C(F)(F)F)ccc45)cc3)[nH]c(=O)c2C#N)c2ccccc12 , state its recorded GI50.
10.2 µM (inactive)

Given Cc1cc(C)nc(NC(P(=O)(O)O)P(=O)(O)O)n1 , state its recorded GI50.
> 100 µM (inactive)

Given CC1(C)C(=O)/C(=C/c2ccccc2)C(C)(C)C1(C)C , state its recorded GI50.
> 55.5 µM (inactive)

* * *

- Test system: TK-10
- ASSAY_DETAILS: NCI tumour cell line growth inhibition, 48 h
Activity calls are given as the source filed them. No stated cut-off is given here; in the data, active = GI50 up to about 1.1 µM and inactive = higher.
QUANTITY_KIND: GI50

Given O=C(O)C1C2CC3C(OC(=O)C31)C2Br (stereo unspecified) , state its recorded GI50.
> 100 µM (inactive)

Given c1cnc2c(c1)-n1cccc1C1(CCSC1)NN2 (stereo unspecified) , state its recorded GI50.
> 100 µM (inactive)

Given COc1ccc(C[C@H]2COC(=O)[C@@H]2Cc2ccc(O)cc2)cc1OC , state its recorded GI50.
> 100 µM (inactive)

Given N#CC1(c2nc3ccccc3o2)C(=O)C(=O)N(c2ccc(Cl)c(Cl)c2)C(=O)C1=O , state its recorded GI50.
> 100 µM (inactive)

Given NC(CCC(=O)Nc1ccc(O)cc1)C(=O)O (stereo unspecified) , state its recorded GI50.
> 100 µM (inactive)

Given COc1ccc(CNc2nc3ccccc3nc2C(=O)O)cc1 , state its recorded GI50.
> 100 µM (inactive)

* * *

- Test system: HT-29
- ASSAY_DETAILS: NCI tumour cell line growth inhibition, 48 h
Active and inactive are the calls of the source. No stated cut-off is given here; in the data, active = GI50 up to about 1.1 µM and inactive = higher.
// one of t = active, f = inactive, no free text

What did this assay record as the result for COc1ccc(/C(=N/N=c2\[nH]c3ccccc3n2Cc2ccccc2)C(=O)O)cc1 ?
f

What did this assay record as the result for CN(C)CN(C)c1nc(N(C)C)nc(N(C)CN(C)C)n1 ?
f

What did this assay record as the result for COc1nc(NC2OCC(O)C(O)C2O)c(NC2OCC(O)C(O)C2O)c(=O)n1C (centres undefined) ?
f

What did this assay record as the result for COc1cc(/C=C\c2ccc(SC)cc2)cc(OC)c1OC ?
t

What did this assay record as the result for C[C@@H](NC(=O)[C@@H]1C[C@]1(C)COC(=O)c1cc([N+](=O)[O-])cc([N+](=O)[O-])c1)c1cccc2ccccc12 ?
f

What did this assay record as the result for Cc1ccc(NC(=O)CC(=O)N2N=C(N(CCC#N)c3cccc(C)c3)CC2c2ccccc2)cc1 (centres undefined) ?
f

What did this assay record as the result for O=[N+]([O-])/C(C(Cl)=C(Cl)Cl)=C1\Nc2ccccc2O1 ?
f

What did this assay record as the result for C[C@]12CCC3[C@@H](C[C@H]4OC(=O)[C@@]35CCC(=O)C=C45)C1CCC2=O (some centres undefined) ?
f

What did this assay record as the result for COC(=O)c1c([N+](=O)[O-])ncn1[C@H]1OC[C@@H](OC(C)=O)[C@@H](OC(C)=O)[C@@H]1OC(C)=O ?
f

* * *

I'd appreciate it if you could supply GI50 values for the items below.
- System: DMS-273
- ASSAY_DETAILS: NCI tumour cell line growth inhibition, 48 h
Activity calls are given as the source filed them. No stated cut-off is given here; in the data, active = GI50 up to about 1.1 µM and inactive = higher.

Given Cc1ccc(NC(=O)C(=O)C(C#N)c2nc(-c3ccc(-c4ccccc4)cc3)cs2)c(C)c1 (centres undefined) , state its recorded GI50.
39.6 µM (inactive)

Given CC(C)(C)c1nc2c(o1)/C(=N\c1ccccc1)c1ccccc1C2=O , state its recorded GI50.
3.71 µM (inactive)

Given O=C(CCl)Nc1ccc(C(=O)N/N=C/c2ccc(Cl)cc2)cc1 , state its recorded GI50.
2 µM (inactive)

Given Cc1nn(C)cc1P(=S)(c1ccccc1)c1ccccc1 , state its recorded GI50.
31.6 µM (inactive)

Given COc1cc(C2=NN(C)C(c3ccc([N+](=O)[O-])o3)C2)cc(OC)c1OC (centres undefined) , state its recorded GI50.
> 100 µM (inactive)

Given CC(C)(C)c1cc(COc2c3sc(=S)sc3c(OCc3cc(C(C)(C)C)cc(C(C)(C)C)c3)c3sc(=S)sc23)cc(C(C)(C)C)c1 , state its recorded GI50.
> 100 µM (inactive)

Given NNC(=O)N/N=C1\CN(c2ccc(Cl)cc2Cl)C(=O)C(=O)C1c1nc2ccccc2o1 (centres undefined) , state its recorded GI50.
> 100 µM (inactive)

Given COc1cc(C(=O)N2CCc3c([nH]c4c([N+](=O)[O-])c(OC)ccc34)C2C)cc(OC)c1OC (centres undefined) , state its recorded GI50.
> 100 µM (inactive)

Given C/C(=N\O)c1sc(-n2nc(-c3ccccc3)cc2-c2ccccc2)nc1C , state its recorded GI50.
22.5 µM (inactive)

* * *

- System: PC-3
- ASSAY_DETAILS: NCI tumour cell line growth inhibition, 48 h
Active and inactive are the calls of the source. No stated cut-off is given here; in the data, active = GI50 up to about 1.1 µM and inactive = higher.
// one of 1 (active), -1 (inactive), no free text

What did this assay record as the result for C=CCOCn1cnc2c(=O)[nH]c(N)nc21 ?
-1

What did this assay record as the result for C=C(C)[C@@]1(O)CCC[C@H]1NC(=O)OC(C)(C)C ?
-1

What did this assay record as the result for Cn1c2ccccc2c2c3c(=O)[nH][nH]c(=O)c3c3c4ccccc4n(C)c3c21 ?
-1

What did this assay record as the result for CC#CC#C/C=C1/C=CC2(CCCCO2)O1 (stereo not drawn) ?
-1

What did this assay record as the result for COc1ccc(NC(=S)N/N=C(\c2ccccc2)c2ccccn2)cc1 ?
1

What did this assay record as the result for O=[N+]([O-])c1cc(-[n+]2cc([O-])on2)ccc1Cl ?
-1

What did this assay record as the result for COn1oc(=O)c2ccccc21 ?
-1

What did this assay record as the result for O=C1/C(=C/c2cccc([N+](=O)[O-])c2)N=C(c2ccccc2)N1c1ccc2c(c1)Sc1cc(N3C(=O)/C(=C/c4cccc([N+](=O)[O-])c4)N=C3c3ccccc3)ccc1N2 ?
-1

What did this assay record as the result for Cn1c([C@H](C#N)c2ncccc2[N+](=O)[O-])nc2ccccc21 ?
-1

What did this assay record as the result for N#CC(C#N)=CNCCN1CCN(C=C(C#N)C#N)CC1 ?
-1

What did this assay record as the result for COc1cc2c(cc1OCCCC(=O)Nc1cc(C(=O)Nc3cc(C(=O)Nc4cc(C(=O)NCCCN(C)C)n(C)n4)n(C)n3)n(C)n1)N=CC1CCCN1C2=O (stereo not drawn) ?
-1

What did this assay record as the result for CN(C(=O)[C@H](NC(=O)OCc1ccccc1)c1ccccc1)C1CCCCC1N1CCCC1 (stereo partly drawn) ?
-1

What did this assay record as the result for C=CC[C@H](C)CCC(=O)N1[C@H]2CC3CC[C@@]2(CS1(=O)=O)C3(C)C ?
-1
